Measured cAMP release, % activity, 100 nM, listed per entry for reference.
targetDesc: human GLP-1 receptor (human, UniProt P43220 24-463)
Sequence (P43220 24-463): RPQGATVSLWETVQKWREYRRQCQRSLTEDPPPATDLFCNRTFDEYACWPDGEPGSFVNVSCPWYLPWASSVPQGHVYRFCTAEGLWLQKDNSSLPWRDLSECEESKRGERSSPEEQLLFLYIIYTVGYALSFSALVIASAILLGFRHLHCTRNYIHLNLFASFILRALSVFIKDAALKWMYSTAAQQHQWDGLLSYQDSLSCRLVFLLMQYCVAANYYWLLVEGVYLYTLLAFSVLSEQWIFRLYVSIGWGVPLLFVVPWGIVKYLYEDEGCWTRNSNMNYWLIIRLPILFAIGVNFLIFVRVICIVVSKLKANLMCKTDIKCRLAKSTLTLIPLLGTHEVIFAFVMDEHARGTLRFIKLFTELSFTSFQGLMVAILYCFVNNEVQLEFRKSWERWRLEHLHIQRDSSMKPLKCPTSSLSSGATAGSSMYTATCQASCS
runDescription: cell-based or functional assay
Non-standard residues stand in square brackets, D forms with d. No end group written: not given here. *: point of attachment. 2Cl,4OMe‑APPA = 2-amino-5-(2-chloro-4-methoxyphenyl)pentanoic acid; Bip(2'-Et-4'-OMe) = CCc1cc(OC)ccc1-c1ccc(C[C@H](N)C(=O)O)cc1; 2F‑APPA = 2-amino-5-(2-fluorophenyl)pentanoic acid; αMePhe(2-F) = C[C@](N)(Cc1ccccc1F)C(=O)O; hhPhe = N[C@@H](CCCc1ccccc1)C(=O)O; Aib = CC(C)(N)C(=O)O; Moc = COC(=O)*
Answer format: numeric, % implied, no suffix.

Here's what some known entries look like.
H[Aib]QGTFTSD[Bip(2'-Et-4'-OMe)][2Cl,4OMe‑APPA] [Seq. ID. No. 68: H-Aib-QGTFTSD-Bip(OMe)-(2Cl, 4OMe-APPA)]
88
Moc-H[Aib]QGT[αMePhe(2-F)]TSD[Bip(2'-Et-4'-OMe)][2F‑APPA] (also: reduced (CH2) bonds between 9-10 and 10-11) [Seq. ID. No. 196: CH3OCO-H-Aib-QGT-(α-Me-2F-Phe)-TSD-(CH2)-BiP(OMe)-(CH2)-(2F-APPA)]
89

From here, focus on the item given below.
### Prompt Return reported cAMP release, % activity, 100 nM; argument: Moc-H[Aib]QGT[αMePhe(2-F)]TSD[Bip(2'-Et-4'-OMe)][hhPhe] (also: reduced (CH2) bonds between 9-10 and 10-11) [Seq. ID. No. 194: CH3OCO-H-Aib-QGT-(α-Me-2F-Phe)-TSD-(CH2)-Bip(OMe)-(CH2)-(APPA)]
### Response 85
